target under test: CNOT7 (Homo sapiens)
Construct: biotin (biotinylated); purchased Ichor Life Sciences
Sequence (Q9UIV1 whole entry): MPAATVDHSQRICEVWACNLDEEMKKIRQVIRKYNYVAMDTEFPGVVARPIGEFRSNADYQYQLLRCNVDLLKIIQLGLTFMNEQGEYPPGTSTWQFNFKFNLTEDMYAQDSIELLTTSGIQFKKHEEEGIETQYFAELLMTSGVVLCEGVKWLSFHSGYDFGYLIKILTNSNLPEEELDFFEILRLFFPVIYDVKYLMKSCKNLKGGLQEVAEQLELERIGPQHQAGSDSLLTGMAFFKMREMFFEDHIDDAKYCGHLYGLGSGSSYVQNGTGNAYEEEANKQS
measurement description: Binding of compounds to CNOT7 by surface plasmon resonance (SPR)
experimental parameters: Table 5; dissociation constant for CNOT7 by SPR
Description: Surface plasmon resonance (SPR) was used to evaluate the binding of compounds to CNOT7. Experiments were performed on a Biacore 8K (Cytiva) with a running buffer consisting of 20 mM HEPES pH7.5, 100 mM KCl, 3 mM MgCl2, 1 mM TCEP, 0.05% tween-20, 2% DMSO. Briefly, biotinylated CNOT7 (Ichor Life Sciences) at a concentration of 70 μg/ml was immobilized to a streptavidin coated chip (Cytiva sensor chip SA) for 1200 sec at a flow rate of 5 μl/min (typical immobilization level 7,500 RU). […]
pKd: −log10 of the molar value.
pKd for assorted compounds

[
  {
    "compound": "Cc1c[nH]c(=O)nc1SCC(=O)N[C@@H](c1ccc(O)cc1)C1CC1",
    "target under test": "CNOT7 (Homo sapiens)",
    "pKd": "4.60 to 6.00"
  }
]

What value of pKd has been reported for the following compound? COc1ccc(CNC(=O)CNc2nc(=O)[nH]cc2C)cc1
< 4.60

What value of pKd has been reported for the following compound? COc1ccc(C2(NC(=O)CSc3nc(=O)[nH]cc3Cl)CC2)cc1F
6.00 to 7.00

What value of pKd has been reported for the following compound? COc1ccc(CN(CCO)C(=O)CSc2cc(=O)[nH]cc2C)cc1
< 4.60

What value of pKd has been reported for the following compound? COc1ccc(C(C)NC(=O)CSc2nc(=O)[nH]cc2C)c(F)c1 (centres unmarked)
6.00 to 7.00

====

target under test: CNOT7 (Homo sapiens)
Construct: biotin (biotinylated); purchased Ichor Life Sciences
measurement description: Binding of compounds to CNOT7 by surface plasmon resonance (SPR)
experimental parameters: dissociation constant by SPR, Table 7
pKd: −log10 of the molar value.
pKd for assorted compounds

[
  {
    "given smiles": "COc1ccc2c(c1)C[C@@H](COCCOCCOCCOCCN=[N+]=[N-])N(C(=O)CSc1nc(=O)[nH]cc1Cl)C2",
    "measured endpoint": "pKd",
    "measurement": "< 4.60"
  },
  {
    "given smiles": "COc1ccc([C@@H](C)NC(=O)C2(Sc3nc(=O)[nH]cc3C)CCC2)cc1",
    "measured endpoint": "pKd",
    "measurement": "6.00 to 7.00"
  },
  {
    "given smiles": "COc1ccc([C@@H](C)NC(=O)[C@H](COCCOCCOCCN=[N+]=[N-])Sc2nc(=O)[nH]cc2C)c(F)c1",
    "measured endpoint": "pKd",
    "measurement": "4.60 to 6.00"
  }
]

What value of pKd has been reported for the following compound? COc1ccc([C@@H](C)NC(=O)[C@@H](COCCOCCOCCN=[N+]=[N-])Sc2nc(=O)[nH]cc2C)c(F)c1
4.60 to 6.00

====

target under test: CNOT7-FKBP12(F36V) fusion protein (Homo sapiens, UniProt Q9UIV1)
Construct: expressed in transfected cells; host or cells: H1299 cells; anti-HA immunoprecipitation, HA-peptide elution
Sequence (Q9UIV1 with tags, fused parts or gaps): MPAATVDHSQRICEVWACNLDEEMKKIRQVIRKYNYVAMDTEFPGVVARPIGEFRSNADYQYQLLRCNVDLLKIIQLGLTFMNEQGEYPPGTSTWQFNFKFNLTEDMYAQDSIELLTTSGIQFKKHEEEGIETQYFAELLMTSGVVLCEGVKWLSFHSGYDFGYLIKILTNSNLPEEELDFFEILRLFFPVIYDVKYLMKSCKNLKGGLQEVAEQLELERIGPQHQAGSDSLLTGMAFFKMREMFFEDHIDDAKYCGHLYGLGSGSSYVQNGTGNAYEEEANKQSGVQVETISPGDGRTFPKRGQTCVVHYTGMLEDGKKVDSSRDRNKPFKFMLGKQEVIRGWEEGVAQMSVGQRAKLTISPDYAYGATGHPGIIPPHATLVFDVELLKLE
measurement description: Biochemical gel assay: degradation/deadenylation of RNA substrate with immunoprecipitated CNOT7-FKBP12(F36V)
Parameters: key: +: an activity observed as compared to DMSO control; −: no activity observed as compared to DMSO control
experimental parameters: Table 8; degradation of RNA, compared to DMSO control

[
  {
    "molecule": "COc1ccc(CNC(=O)[C@H](COCCOCCOCCn2cc(COCCOCCOc3ccc(NC(=O)Nc4nc(CC(=O)N5CCN(C)CC5)cs4)cc3)nn2)Sc2nc(=O)[nH]cc2C)c(F)c1",
    "Activity by gel": "−"
  },
  {
    "molecule": "COc1ccc([C@@H](C)NC(=O)[C@@H](CCOCCOCCOCCn2cc(COCCOCCOCCOCCOc3ccc(NC(=O)Nc4nc(CC(=O)N5CCN(C)CC5)cs4)cc3)nn2)Sc2nc(=O)[nH]cc2Cl)c(F)c1",
    "Activity by gel": "+"
  },
  {
    "molecule": "COc1ccc(C(C)NC(=O)C(CCOCCOCCOCCn2cc(CCc3ccc(NC(=O)Nc4nc(CC(=O)N5CCN(C)CC5)cs4)cc3)nn2)Sc2nc(=O)[nH]cc2C)c(F)c1 (stereo not drawn)",
    "Activity by gel": "+"
  }
]
